Test system: SF-295 CNS
Test method notes: NCI tumour cell line growth inhibition, 48 h
Please go through the items and note down their GI50.

Answered cases to consult:
> print(dat)
                                   molecule  assayed.system   reported
1  CNNC(=N\S(=O)(=O)c1cc(C)c(Cl)cc1SCc1ccccc1)/N=C/c1ccc([N+](=O)[O-])s1      SF-295 CNS  > 87.7 µM
2  CC1CN(S(=O)(=O)c2oc(-c3ccc(Cl)cc3)nc2C#N)CC(C)O1 (stereo unspecified)      SF-295 CNS    13.8 µM
3  COC(=O)c1cc2c(cc1Cl)SC1=NN(C)S(=O)N1S2(=O)=O (stereo unspecified)      SF-295 CNS   > 100 µM

Give GI50 for all molecules that follow.
1. O=C(Nc1ccc(F)cc1F)c1cc(Cl)ccc1O
2. NS(=O)(=O)c1ccc(N2N=C3c4ccccc4CC3C2c2cccs2)cc1 (stereo unspecified)
3. O=c1c2cc(-c3ccccc3)sc2ncn1Cc1ccc(Cl)c(Cl)c1

**A:**
1. 1.56 µM
2. 16.2 µM
3. 12.3 µM

###

Tested on: NCI-H522 lung
Test method notes: NCI tumour cell line growth inhibition, 48 h
Readout label: GI50

Answered cases to consult:
> print(dat)
                              record.smiles  readout.label  reported
1  CCN1CCN(Cc2ccc(NC(=O)Nc3nc4ccc(Oc5ccnc(C(=O)NC)c5)cc4s3)cc2C(F)(F)F)CC1           GI50   1.68 µM
2  COc1ccc(/C=C/C(=O)c2ccc(-n3cc(CN4CCN(c5cc6c(cc5F)c(=O)c(C(=O)O)cn6C5CC5)CC4)nn3)cc2)cc1OC           GI50   4.25 µM
3           O=C(Nc1ccc(F)cc1F)c1cc(Cl)ccc1O           GI50  0.974 µM
4  O=c1c2cc(-c3ccccc3)sc2ncn1Cc1ccc(Cl)c(Cl)c1           GI50   6.43 µM

Could you now look at the following molecule, please?
**Q:** Entry CSc1ncc(Br)c(Sc2nc(N)nc3nc[nH]c23)n1 , system NCI-H522 lung: what GI50 was measured?
**A:** 3.97 µM

###

System: SF-295 CNS
Test method notes: NCI tumour cell line growth inhibition, 48 h
Readout label: TGI

Answered cases to consult:
> print(dat)
                                   compound  readout.label  reported
1  C=C1C(=O)O[C@H]2[C@H]1CC/C(COC(=O)NCc1ccc(OC)cc1)=C\CC[C@@]1(C)O[C@@H]21            TGI     25 µM
2  CC(=O)NC(CCCCN)C(=O)NCc1ccccc1 (stereo not drawn)            TGI  > 100 µM
3             Cl/C(N=Nc1ccccc1)=N/Nc1ccccc1            TGI  > 100 µM
4      O=Nn1c2ccccc2c2cc([N+](=O)[O-])ccc21            TGI   28.5 µM
5  CCN1CCN(c2cc(C)nc(N(CCCNc3ccnc4cc(Cl)ccc34)Cc3ccc4c(c3)OCO4)n2)CC1            TGI   3.82 µM

Give TGI for all compounds that follow.
1. O=C1Nc2cc([N+](=O)[O-])c(Br)cc2C1=O
2. CCCc1c(C(=O)OCC)[nH]c(-c2ccc(-c3[nH]c(C(=O)OCC)c(CCC)c3C(=O)OCC)s2)c1C(=O)OCC
3. CC(C)(C)CC(C)(C)NC(=S)NO

**A:**
["14.3 µM", "> 100 µM", "> 100 µM"]

###

Tested on: SW-620 colon
Test method notes: NCI tumour cell line growth inhibition, 48 h
Please go through the items and note down their TGI.

Answered cases to consult:
Compound	TGI
CCN1CCN(c2cc(C)nc(N(CCCNc3ccnc4cc(Cl)ccc34)Cc3ccc4c(c3)OCO4)n2)CC1	12.5 µM
O=C(N/C(=C\c1ccc(Br)cc1)c1nc2ccccc2[nH]1)c1ccccc1	29.6 µM
COc1ccc(NC(=O)/C=C(C)/C=C/C=C(C)/C=C/C2=C(C)CCCC2(C)C)cc1	8.43 µM
CCCCCCCCOC(=O)c1c(C)[nH]c(/C=C2\N=C(c3ccc[nH]3)C=C2OC)c1C	1.56 µM
Cc1ccnc2nc(N)ccc12	> 100 µM
Cc1ccc(NC2=NCCO2)c2c1CCC2	> 100 µM
CN1CN(c2ccccc2)C2(CCN(CCCCCCF)CC2)C1=O	> 100 µM
CC(C)(O)C1CC[C@]2(C)[C@H]3CC[C@@H]4[C@@]5(C)CCCC(C)(C)[C@@H]5CC[C@@]4(C)[C@]3(C)CC[C@@H]12 (stereo partly drawn)	> 100 µM

Give TGI for all compounds that follow.
1. O=S1(=O)N(Cc2ccccc2)[C@@H](Cc2ccccc2)[C@H](O)[C@H](O)[C@H](Cc2ccccc2)N1Cc1ccccc1
2. Cc1ccc(S(=O)(=O)[C@@H](Cl)[C@H]2N=C(Cl)NN=C2c2ccccc2)cc1
3. Nc1cccc(S(=O)(=O)Nc2nnc(S(N)(=O)=O)s2)c1
4. NC(=O)[C@@H](CC1CC1)[C@@H](CCC(F)(F)F)C(=O)N[C@H]1N=C(c2ccccc2)c2cccc(F)c2NC1=O

**A:**
7.12 µM
40.8 µM
> 100 µM
> 100 µM

Give TGI for all compounds that follow.
1. CCCCCN(CCCCC)CC(O)c1cc(Cl)ccc1OC (stereo not drawn)
2. COc1ccc(C(=O)c2cc3c(N)c(C(=O)Nc4ccccc4)sc3nc2C)cc1
3. CCN(CC)CCCNC(=O)c1cc2cc(NC(=O)c3cc4cc([N+](=O)[O-])ccc4[nH]3)ccc2[nH]1
4. O=C(/C=C/c1ccc(O)c(O)c1)NCc1c[nH]c2ccccc12
5. O=C1Nc2cc([N+](=O)[O-])c(Br)cc2C1=O
6. CCc1cccc(C)c1NC(=O)CCc1nnc2s/c(=C\c3cccc4ccccc34)c(=O)n12
7. CCCC1C(=O)Nc2cccc3ncn(c23)C1=O (stereo not drawn)

**A:**
1: 18.2 µM; 2: > 100 µM; 3: > 100 µM; 4: > 100 µM; 5: 38.6 µM; 6: > 100 µM; 7: > 100 µM

###

Tested on: HS 578T breast
Test method notes: NCI tumour cell line growth inhibition, 48 h
Readout label: GI50

> print(dat)
                                   compound  assayed.system  reported
1  O=C1C2=C(C(=O)c3cnccc31)C1C=CC2CC1 (configuration not stated)  HS 578T breast   2.77 µM
2         COc1cccc(CN(C)c2ccc(CO)c(Cl)c2)c1  HS 578T breast   43.6 µM
3  COC(=O)c1cc2c(cc1Cl)SC1=NN(C)S(=O)N1S2(=O)=O (configuration not stated)  HS 578T breast  > 100 µM
4  NS(=O)(=O)c1ccc(N2N=C3c4ccccc4CC3C2c2cccs2)cc1 (configuration not stated)  HS 578T breast   28.7 µM
5  O=C(/C=C/c1ccc(C(F)(F)F)cc1)Nc1ccc(C=C2c3ccccc3C(=O)c3ccccc32)cc1  HS 578T breast   13.1 µM
6  CC(C)c1nc(N(C)S(C)(=O)=O)nc(-c2ccc(F)cc2)c1/C=C/[C@@H](O)C[C@@H](O)CC(=O)O  HS 578T breast   51.9 µM

Give GI50 for all compounds that follow.
1. CSc1ncc(Br)c(Sc2nc(N)nc3nc[nH]c23)n1
2. CC[C@@]1(OC(=O)CN)C(=O)OCc2c1cc1n(c2=O)Cc2c-1nc1cc3c(cc1c2CCl)OCO3
3. CN1CCN(Cc2ccc(NC(=O)c3cncc(C#Cc4cnc(N)cc4C#N)c3)cc2C(F)(F)F)CC1
4. COc1ccc(C(=O)c2cc3c(N)c(C(=O)Nc4ccccc4)sc3nc2C)cc1
5. Cc1ccc2nc(-c3ccc(OCC(=O)N=Nc4c(O)[nH]c5ccccc45)cc3)[nH]c2c1
6. CCn1c(-c2cc3c([nH]c4ccccc43)c(-c3cccc(O)c3)n2)n[nH]c1=S

**A:**
["6.71 µM", "0.762 µM", "1.46 µM", "0.331 µM", "11.4 µM", "2.21 µM"]

###

Tested on: RXF 393 renal
Test method notes: NCI tumour cell line growth inhibition, 48 h
Readout label: GI50

Answered cases to consult:
> print(dat)
                                   compound  assayed.system  reported
1  CCC(C)Oc1nc2c(c(=O)n(C)c(=O)n2C)n1C (stereo not given)   RXF 393 renal  > 100 µM
2  NC(=O)[C@@H](CC1CC1)[C@@H](CCC(F)(F)F)C(=O)N[C@H]1N=C(c2ccccc2)c2cccc(F)c2NC1=O   RXF 393 renal     68 µM
3  CCn1c(-c2cc3c([nH]c4ccccc43)c(-c3cccc(O)c3)n2)n[nH]c1=S   RXF 393 renal   2.01 µM
4  Oc1c(Cl)cc(Cl)c2ccc(Cn3cc(-c4cc(C(F)(F)F)cc(C(F)(F)F)c4)nn3)nc12   RXF 393 renal  0.555 µM

Could you now look at the following compound, please?
**Q:** Endpoint output: GI50 of O=C(/C=C/c1ccc(C(F)(F)F)cc1)Nc1ccc(C=C2c3ccccc3C(=O)c3ccccc32)cc1 . Value?
**A:** 8.26 µM

The reported numbers originate from PubChem BioAssay (NCI).
